# switch fluorescence ratio per entry
Test system: ATP;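 also: ATP exposure 15 min at 22 °C before imaging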
methodSummary: switch fluorescence ratio, 500 uM ATP over buffer (Cy3 cluster intensity, sum of 5 cycles each) (fold (ratio)); higher = stronger signal-on switching upon ATP binding; sequences stand for … in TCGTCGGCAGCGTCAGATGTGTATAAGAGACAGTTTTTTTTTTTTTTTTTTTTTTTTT…TC
conditionSet: aptamer strand: ATP DNA aptamer (quencher-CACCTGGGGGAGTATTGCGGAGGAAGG + anchor), 100 nM annealed; ATP concentration: 500 uM

macromoleculeSequence | switch fluorescence ratio
ACACGGGGGA | 1.01
TTTTGCAGCC | 0.976
TTAGTGGCTT | 0.994
TCTAAGTATT | 1.02
TTGGTATCTT | 0.999
TTGGGTTCAC | 0.988

###

Tested on: ATP;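 also: ATP exposure 15 min at 22 °C before imaging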
methodSummary: switch fluorescence ratio, 500 uM ATP over buffer (Cy3 cluster intensity, sum of 5 cycles each) (fold (ratio)); higher = stronger signal-on switching upon ATP binding; sequences stand for … in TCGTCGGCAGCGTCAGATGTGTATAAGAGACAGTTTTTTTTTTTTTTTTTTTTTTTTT…TC
conditionSet: aptamer strand: ATP DNA aptamer (quencher-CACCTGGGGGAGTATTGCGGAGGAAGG + anchor), 100 nM annealed; ATP concentration: 500 uM
Lab note: anything with switch fluorescence ratio at or over 1 counts as Satisfied; the rest go in Not satisfied.

macromoleculeSequence | testSystem | classLabel
TCGATGGACT | ATP | Satisfied
TCCGGGGGTA | ATP | Satisfied
TCTGGGCAGC | ATP | Satisfied
TTGTAATCAG | ATP | Not satisfied
CGGTATATGG | ATP | Not satisfied
AAAGCTTGGA | ATP | Satisfied
GCTTCGTTGG | ATP | Satisfied
GACGACGGGT | ATP | Satisfied
GAGGGGAGCG | ATP | Not satisfied
ATAGTTGGC | ATP | Satisfied
ATATGATGTA | ATP | Not satisfied
CACTCCCGGA | ATP | Satisfied
CCCGTATATC | ATP | Satisfied
AGATATCCGC | ATP | Satisfied
GGGTGTGGGT | ATP | Not satisfied
TTCAAGGTGC | ATP | Satisfied
TGCGAAACTT | ATP | Satisfied
AAATATAAAC | ATP | Satisfied
CCGCGCTGCC | ATP | Satisfied
GGCTACGAGA | ATP | Satisfied
GGTTGGGTG | ATP | Satisfied
ACAGTACACA | ATP | Satisfied
GGATTCTGGG | ATP | Not satisfied
TCCTTCTTTA | ATP | Satisfied
TACGGGGTG | ATP | Satisfied

###

System: ATP;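 also: ATP exposure 15 min at 22 °C before imaging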
methodSummary: switch fluorescence ratio, 500 uM ATP over buffer (Cy3 cluster intensity, sum of 5 cycles each) (fold (ratio)); higher = stronger signal-on switching upon ATP binding; sequences stand for … in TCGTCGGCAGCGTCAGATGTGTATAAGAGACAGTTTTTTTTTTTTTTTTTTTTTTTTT…TC
conditionSet: aptamer strand: ATP DNA aptamer (quencher-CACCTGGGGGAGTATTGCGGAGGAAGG + anchor), 100 nM annealed; ATP concentration: 500 uM
recordedEndpoint: switch fluorescence ratio

macromoleculeSequence | dataValue
TCTGATATAG | 1
TATAGGTGAG | 1.01
ATTGGGGCTT | 1.01
TTAGCATCTA | 0.999
